Each item that follows carries a reported ELISA fold over background.
Molecular target: S1 Fc fusion protein (SARS-CoV-2, UniProt P0DTC2 14-685)
Assay: phage ELISA
Your answer should be a plain number; it is taken to be in fold.

# count of solved cases: 4
binder: SARS-CoV-2 variant 1-49 (antibody, V domains shown) VH: EVQLLESGGGLVQPGGSLRLSCAASGFTFSSYAMYWVRQAPGKGLEWVSAISGSAGSTYYADSVKGRFTISRDNSKNTLYLQMNSLRAEDTAVYYCARDTNDFWGQGTLVTVSS VL: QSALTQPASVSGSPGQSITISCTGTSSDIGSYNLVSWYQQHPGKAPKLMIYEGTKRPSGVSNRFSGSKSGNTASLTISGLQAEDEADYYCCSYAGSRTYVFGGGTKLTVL
value: 0.8

binder: SARS-CoV-2 variant 1-7 (antibody, V domains shown) VH: EVQLLESGGGLVQPGGSLRLSCAASGFTFSSYDMSWVRQAPGKGLEWVSVISGSGGSTYYADSVKGRFTISRDNSKNTLYLQMNSLRAEDTAVYYCAKGPLVGWYFDLWGQGTLVTVSS VL: QSALTQPASVSGSPGQSITISCTGTSSDFGSYNLVSWYQQHPGKAPKLMIYEGNKRPSGVSNRFSGSKSGNTASLTISGLQAEDEADYYCCSYAGSSTFVVFGGGTKLTVL
value: 1.7

binder: SARS-CoV-2 variant 1-32 (antibody, V domains shown) VH: EVQLLESGGGLVQPGGSLRLSCAASGFTFSSYAMYWVRQAPGKGLEWVSAISGSGGSTFYADSVKGRFTISRDNSKNTLYLQMNSLRAEDTAVYYCTRPPYGDYGDYWGQGTLVTVSS VL: QSALTQPASVSGSPGQSITISCTGTSSDVGGYNLVSWYQQHPGKAPKLMIYEGNKRPSGVSNRFSGSKSGNTASLTISGLQAEDEADYYCCSYAGSSTFPVVFGGGTKLTVL
value: 4

binder: SARS-CoV-2 variant 1-4 (antibody, V domains shown) VH: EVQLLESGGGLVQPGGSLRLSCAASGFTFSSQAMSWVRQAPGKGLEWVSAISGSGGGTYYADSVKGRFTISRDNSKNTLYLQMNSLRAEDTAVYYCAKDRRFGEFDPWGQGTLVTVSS VL: QSALTQPASVSGSPGQSITISCTGTSSDVGTYNLVSWYQQHPGKAPKLMIYEGSQRPSGVSNRFSGSKSGNTASLTISGLQAEDEADYYCCSYAGSSSFVVFGGGTKLTVL
value: 0.9

Consider SARS-CoV-2 variant 1-10 (antibody, V domains shown) VH: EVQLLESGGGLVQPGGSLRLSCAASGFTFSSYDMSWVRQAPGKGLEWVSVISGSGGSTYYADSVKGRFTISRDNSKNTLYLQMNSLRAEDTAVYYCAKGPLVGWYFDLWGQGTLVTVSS VL: QSALTQPASVSGSPGQSITISCTGTSSNVGSYNLVSWYQQHPGKAPKLMIYEGTKRPSGVSNRFSGSKSGNTASLTISGLQAEDEADYYCCSYAGSSSFVVFGGGTKLTVL . Its measured ELISA fold over background is 1.3
